pIC50: −log10 of the molar value.
For MetAP-2 (Homo sapiens), measured pIC50 is reported for the entries below.
parameter: pIC50

1. CC(C)(C)OC(=O)NCC(=O)N1CCc2cccc(OC[C@H]3CCCN3c3ccnc4ncnn34)c2C1 [Compound A31] : 6.00 to 8.00
2. O=C(O)Cc1ccccc1OC[C@H]1CCCN1c1ccnc2ncnn12 [Compound A57] : < 5.00
3. NC(=O)C[C@@H](N)C(=O)N1CCc2cccc(OC[C@H]3CCCN3c3ccnc4ncnn34)c2C1 [Compound A36] : 6.00 to 8.00
4. c1cc(COC[C@H]2CCCN2c2ccnc3ncnn23)ccn1 [Compound A58] : < 5.00
5. O=C(OC[C@H]1CCCN1c1ccnc2ncnn12)c1cc(Cl)nc2ccccc12 [Compound A46] : 6.00 to 8.00
6. c1cc(OC[C@H]2CCCN2c2ccnc3ncnn23)c2cccnc2c1 [Compound A5] : 6.00 to 8.00
7. O=C(NCCCN1CCCC1=O)c1cc(OC[C@H]2CCCN2c2ccnc3ncnn23)c2ccccc2n1 [Compound A18] : 6.00 to 8.00
8. NCCCN1CCc2cccc(OC[C@H]3CCCN3c3ccnc4ncnn34)c2C1 [Compound A76] : 6.00 to 8.00
9. O=C(OC[C@H]1CCCN1c1ccnc2ncnn12)c1ccccc1I [Compound A68] : 6.00 to 8.00
10. O=C(OC[C@H]1CCCN1c1ccnc2ncnn12)c1ccc(Oc2ccccc2)nc1 [Compound A64] : 6.00 to 8.00
11. COc1cccc(C(=O)OC[C@H]2CCCN2c2ccnc3ncnn23)c1 [Compound A43] : 6.00 to 8.00
12. O=C(OC[C@H]1CCCN1c1ccnc2ncnn12)c1ccccn1 [Compound A69] : 6.00 to 8.00
13. c1ccc2c(OC[C@H]3CCCN3c3ccnc4nsnc34)cccc2c1 [Compound A47] : < 5.00
14. Nc1nc2nccc(N3CCC[C@@H]3COc3cccc4ccccc34)n2n1 [Compound A80] : 5.00 to 6.00
15. O=C(OC[C@H]1CCCN1c1ccnc2ncnn12)c1cccc(OC(F)(F)F)c1 [Compound A82] : 6.00 to 8.00
16. O=C(NCCc1ccc(F)cc1)c1cc(OC[C@H]2CCCN2c2ccnc3ncnn23)c2ccccc2n1 [Compound A12] : 6.00 to 8.00
17. CCOc1cccc(C(=O)OC[C@H]2CCCN2c2ccnc3ncnn23)c1 [Compound A72] : 6.00 to 8.00
18. O=S(=O)(NC[C@H]1CCCN1c1ccnc2ncnn12)c1ccc(F)cc1 [Compound A84] : 5.00 to 6.00
19. CC(=O)N[C@@H](CC(N)=O)C(=O)N1CCc2cccc(OC[C@H]3CCCN3c3ccnc4ncnn34)c2C1 [Compound A32] : 6.00 to 8.00
20. NCCCOC(=O)N1CCc2cccc(OC[C@H]3CCCN3c3ccnc4ncnn34)c2C1 [Compound A75] : 6.00 to 8.00
21. NCC(=O)N1CCc2cccc(OC[C@H]3CCCN3c3ccnc4ncnn34)c2C1 [Compound A37] : 6.00 to 8.00
22. N#Cc1cccc(C(=O)OC[C@H]2CCCN2c2ccnc3ncnn23)c1 [Compound A79] : 6.00 to 8.00
23. CCOC(=O)c1n[nH]c(C)c1OC[C@H]1CCCN1c1ccnc2ncnn12 [Compound A19] : 6.00 to 8.00
24. O=C1c2ccccc2C(=O)N1C[C@H]1CCCN1c1ccnc2ncnn12 [Compound A78] : 5.00 to 6.00
25. O=C(OC[C@H]1CCCN1c1ccnc2ncnn12)c1cccc(Br)c1 [Compound A44] : 6.00 to 8.00
26. N#CCCCCOC(=O)N1CCc2cccc(OC[C@H]3CCCN3c3ccnc4ncnn34)c2C1 [Compound A40] : 6.00 to 8.00
27. FC(F)(F)c1ccc2nccc(OC[C@H]3CCCN3c3ccnc4ncnn34)c2c1 [Compound A10] : 6.00 to 8.00
28. Ic1cccc(COC[C@H]2CCCN2c2ccnc3ncnn23)c1 [Compound A49] : 5.00 to 6.00
29. O=C(OC[C@H]1CCCN1c1ccnc2ncnn12)c1cccc(I)c1 [Compound A45] : 6.00 to 8.00
30. c1cnn(-c2ccnc3ncnn23)c1 [Compound A2] : < 5.00
31. c1ccc2c(OC[C@H]3CCCN3c3ccnc4nncn34)cccc2c1 [Compound A4] : < 5.00
